- SYSTEM NAME: Human TRPV3 (Homo sapiens, UniProt Q8NET8)
- Construct: expressed in transfected cells; host or cells: CHO cells (G-418 selected)
- Sequence (Q8NET8 1-790): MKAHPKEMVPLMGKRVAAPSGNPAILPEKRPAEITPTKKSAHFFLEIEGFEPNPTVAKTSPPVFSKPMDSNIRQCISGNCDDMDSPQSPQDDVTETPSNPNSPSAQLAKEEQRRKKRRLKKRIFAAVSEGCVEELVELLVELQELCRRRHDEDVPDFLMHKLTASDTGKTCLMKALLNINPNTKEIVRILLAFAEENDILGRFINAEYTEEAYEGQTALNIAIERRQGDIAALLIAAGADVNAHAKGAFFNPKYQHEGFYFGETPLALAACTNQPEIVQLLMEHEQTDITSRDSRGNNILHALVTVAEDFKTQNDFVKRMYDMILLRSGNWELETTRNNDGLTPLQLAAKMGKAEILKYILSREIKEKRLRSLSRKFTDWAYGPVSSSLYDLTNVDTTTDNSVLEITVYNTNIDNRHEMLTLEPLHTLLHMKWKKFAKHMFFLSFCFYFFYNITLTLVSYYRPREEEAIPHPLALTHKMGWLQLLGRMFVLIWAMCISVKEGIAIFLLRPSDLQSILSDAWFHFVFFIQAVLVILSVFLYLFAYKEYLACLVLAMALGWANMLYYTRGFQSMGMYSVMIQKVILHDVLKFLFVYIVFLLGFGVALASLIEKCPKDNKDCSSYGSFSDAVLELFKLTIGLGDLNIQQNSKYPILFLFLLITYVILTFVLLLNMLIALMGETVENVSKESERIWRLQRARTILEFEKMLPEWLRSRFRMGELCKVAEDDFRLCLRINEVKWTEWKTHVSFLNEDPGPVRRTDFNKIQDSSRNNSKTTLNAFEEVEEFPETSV
- PROCEDURE TEXT: 45Calcium uptake assay: inhibition of 2-APB induced cellular uptake of radioactive calcium
- Format: cell-based
- CONDITIONS: 10.0 μM compound; human TRPV3 expressing CHO cells; 2-APB 500 μM; read-out: Percentage inhibition at 10.0 μM
TEST READOUT: inhibition at 10 µM (%)
Record the value in %, omitting the unit from your answer.

// below: answered compounds
O=C(Cc1cccc2ccccc12)NC1CC2(CCC2)Oc2ccc(F)cc21 (stereo not shown)	92.4
O=C(CCc1cccc2c1OCO2)NC1CC2(CCC2)Oc2ccc(Cl)cc21 (stereo not shown)	90.9
COc1ccc2ccccc2c1CCC(=O)N[C@H]1CC2(CCC2)Oc2ccc(Cl)cc21	91
COc1cccc(CCC(=O)NC2CC(C)(C)Oc3ccccc32)c1OC1CCCC1 (stereo not shown)	93.2
COc1cccc(CCC(=O)N[C@@H]2CC3(CCC3)Oc3ccc(Cl)cc32)c1OC1CCCC1	95.1
COc1ccc(C(O)CCC(=O)NC2CC3(CCC3)Oc3ccc(Cl)cc32)c2ccccc12 (stereo not shown)	42.8
COc1cccc(CCC(=O)NC2CCSc3ccc(Cl)cc32)c1OC1CCCC1 (stereo not shown)	87.3
O=C(Cc1cccc2ccccc12)N[C@@H]1CC2(CCC2)Oc2c(F)cc(F)cc21	76

### Prompt Which measured inhibition at 10 µM belongs to COc1cccc(CCCC(=O)NC2CCSc3ccc(Cl)cc32)c1OC1CCCC1 (stereo not shown) , tested on Human TRPV3 (Homo sapiens, UniProt Q8NET8)?
### Response 92.5

### Prompt Which measured inhibition at 10 µM belongs to COc1cccc(CCCC(=O)NC2CC(C)(C)Oc3ccc(Cl)cc32)c1OC1CCCC1 (stereo not shown) , tested on Human TRPV3 (Homo sapiens, UniProt Q8NET8)?
### Response 96.4

### Prompt Which measured inhibition at 10 µM belongs to `Cc1cccc(CCC(=O)N[C@@H]2CC3(CCC3)Oc3ccc(Cl)cc32)c1OC1CCCC1` , tested on Human TRPV3 (Homo sapiens, UniProt Q8NET8)?
### Response 91.4

### Prompt Which measured inhibition at 10 µM belongs to `COc1cccc(CCCC(=O)N[C@@H]2CC3(CCC3)Oc3c(Cl)cccc32)c1OC1CCCC1` , tested on Human TRPV3 (Homo sapiens, UniProt Q8NET8)?
### Response 96.5

### Prompt Which measured inhibition at 10 µM belongs to COc1cccc(CCC(=O)NC2CC3(CCC3)Oc3cc(C)c(Cl)cc32)c1OC1CCCC1 (stereo not shown) , tested on Human TRPV3 (Homo sapiens, UniProt Q8NET8)?
### Response 70.1

Reference source for all entries: patent US8487121B2
